test: AUC (0 to infinity) in ICR mouse at 1 mg/kg, iv measured upto 24 hrs by LC-MS/MS analysis; assay type: ADME, organism-based; settings: in vivo
property: AUC(0-inf) (ng·h/mL)
Number in ng·h/mL, nothing else.

Output measured AUC(0-inf) for this item: CCNC(=O)[C@@H](C)[C@H]1CC[C@H]2[C@@H]3CC=C4C(C)(C)c5nnsc5C[C@]4(C)[C@H]3CC[C@]12C
526

* * *

test: Cytotoxicity against M-CSF induced C57BL/6J mouse BMMC cells assessed as cell viability at 10 uM incubated for 48 hrs by CCK-8 assay relative to control; format: toxicity, cell-based; details: read-out: Activity
property: viability at 48 h, 10 µM

Quickly give me recorded viability at 48 h, 10 µM for CCCCNC(=O)[C@@H](C)[C@H]1CC[C@H]2[C@@H]3CC=C4C(C)(C)c5nnsc5C[C@]4(C)[C@H]3CC[C@]12C
≥ 100%

Give a short answer stating reported viability at 48 h, 10 µM for C[C@H](CO)[C@H]1CC[C@H]2[C@@H]3CC=C4C(C)(C)c5nnsc5C[C@]4(C)[C@H]3CC[C@]12C .
≥ 100%

// fetch viability at 48 h, 10 µM given entry C[C@H](CO)[C@H]1CC[C@H]2[C@@H]3CCC4=CC(=O)CC[C@]4(C)[C@H]3CC[C@]12C
≥ 100%

Return viability at 48 h, 10 µM for the following compound: C[C@H](C(=O)Nc1ccncc1)[C@H]1CC[C@H]2[C@@H]3CC=C4C(C)(C)c5nnsc5C[C@]4(C)[C@H]3CC[C@]12C
≥ 100%

Supply reported viability at 48 h, 10 µM belonging to this compound: C[C@H](C(=O)Nc1ccc(Cl)cc1)[C@H]1CC[C@H]2[C@@H]3CC=C4C(C)(C)c5nnsc5C[C@]4(C)[C@H]3CC[C@]12C
≥ 100%

Quickly give me recorded viability at 48 h, 10 µM for C[C@H](CO)[C@H]1CC[C@H]2[C@@H]3CC=C4C(C)(C)c5nonc5C[C@]4(C)[C@H]3CC[C@]12C
≥ 100%

Note down viability at 48 h, 10 µM recorded for CCNC(=O)CCC[C@@H](C)[C@H]1CC[C@H]2[C@@H]3CC=C4C(C)(C)c5nnsc5C[C@]4(C)[C@H]3CC[C@]12C
≥ 100%

Report measured viability at 48 h, 10 µM; entry is C=CCNC(=O)[C@@H](C)[C@H]1CC[C@H]2[C@@H]3CC=C4C(C)(C)c5nnsc5C[C@]4(C)[C@H]3CC[C@]12C
≥ 100%

Check the records and state viability at 48 h, 10 µM for C[C@H](CO)[C@H]1CC[C@H]2[C@@H]3CC=C4C(C)(C)c5nc6ccccc6cc5C[C@]4(C)[C@H]3CC[C@]12C
≥ 100%

Consider the compound C[C@H](C(=O)Nc1ccc(F)cc1)[C@H]1CC[C@H]2[C@@H]3CC=C4C(C)(C)c5nnsc5C[C@]4(C)[C@H]3CC[C@]12C and give its recorded viability at 48 h, 10 µM.
≥ 100%

Look up and state reported viability at 48 h, 10 µM for CCNC(=O)CC[C@@H](C)[C@H]1CC[C@H]2[C@@H]3CC=C4C(C)(C)c5nnsc5C[C@]4(C)[C@H]3CC[C@]12C
≥ 100%

Return viability at 48 h, 10 µM (reported value) for this compound: CCNC(=O)C[C@@H](C)[C@H]1CC[C@H]2[C@@H]3CC=C4C(C)(C)c5nnsc5C[C@]4(C)[C@H]3CC[C@]12C
≥ 100%

Look up and state reported viability at 48 h, 10 µM for COc1ccc(NC(=O)[C@@H](C)[C@H]2CC[C@H]3[C@@H]4CC=C5C(C)(C)c6nnsc6C[C@]5(C)[C@H]4CC[C@]23C)cc1
≥ 100%

Find the measured viability at 48 h, 10 µM of CCNC(=O)CCCC[C@@H](C)[C@H]1CC[C@H]2[C@@H]3CC=C4C(C)(C)c5nnsc5C[C@]4(C)[C@H]3CC[C@]12C and report it.
≥ 100%

* * *

experiment: Cmax in ICR mouse at 10 mg/kg, po measured upto 24 hrs by LC-MS/MS analysis; format: ADME, organism-based; settings: in vivo
property: Cmax (ng/mL)
Number in ng/mL, nothing else.

Determine from records and report Cmax for CCNC(=O)[C@@H](C)[C@H]1CC[C@H]2[C@@H]3CC=C4C(C)(C)c5nnsc5C[C@]4(C)[C@H]3CC[C@]12C
230

* * *

experiment: AUC (0 to t) in ICR mouse at 10 mg/kg, po measured upto 24 hrs by LC-MS/MS analysis; type: ADME, organism-based; settings: in vivo
property: AUC(0-t) at 24 h (ng·h/mL)
Report the value in ng·h/mL with no unit label.

Give the value of AUC(0-t) at 24 h reported for the following: CCNC(=O)[C@@H](C)[C@H]1CC[C@H]2[C@@H]3CC=C4C(C)(C)c5nnsc5C[C@]4(C)[C@H]3CC[C@]12C
654

* * *

experiment: Total plasma clearance in ICR mouse at 1 mg/kg, iv measured upto 24 hrs by LC-MS/MS analysis; format: ADME, organism-based
property: clearance (mL/min/kg)
Reply with just the number (in mL/min/kg).

Answer with reported clearance of CCNC(=O)[C@@H](C)[C@H]1CC[C@H]2[C@@H]3CC=C4C(C)(C)c5nnsc5C[C@]4(C)[C@H]3CC[C@]12C
31.7

* * *

experiment: Terminal elimination half life in ICR mouse at 1 mg/kg, iv measured upto 24 hrs by LC-MS/MS analysis; type: ADME, organism-based; settings: in vivo, read-out: beta t1/2 (converted)
property: half-life (min)
Answer with a number only, understood to be in min.

Answer with the recorded half-life of CCNC(=O)[C@@H](C)[C@H]1CC[C@H]2[C@@H]3CC=C4C(C)(C)c5nnsc5C[C@]4(C)[C@H]3CC[C@]12C only.
106

* * *

experiment: Tmax in ICR mouse at 10 mg/kg, po measured upto 24 hrs by LC-MS/MS analysis; format: ADME, organism-based; details: in vivo
property: Tmax (min)
Give your result in min as a bare value.

Output measured Tmax for this item: CCNC(=O)[C@@H](C)[C@H]1CC[C@H]2[C@@H]3CC=C4C(C)(C)c5nnsc5C[C@]4(C)[C@H]3CC[C@]12C
40.2

* * *

assay: Cytotoxicity against M-CSF induced C57BL/6J mouse BMMC cells assessed as cell viability at 10 uM incubated for 48 hrs by CCK-8 assay relative to control; assay type: toxicity, cell-based; details: read-out: Activity
property: viability at 48 h, 10 µM

Identify measured viability at 48 h, 10 µM associated with C[C@H](CO)[C@H]1CC[C@H]2[C@@H]3CC=C4C(C)(C)c5c(cnn5-c5ccccc5)C[C@]4(C)[C@H]3CC[C@]12C
≥ 100%

Give viability at 48 h, 10 µM for C[C@H](C(=O)Nc1ccc(Br)cc1)[C@H]1CC[C@H]2[C@@H]3CC=C4C(C)(C)c5nnsc5C[C@]4(C)[C@H]3CC[C@]12C
≥ 100%

Could you please provide reported viability at 48 h, 10 µM for Cc1nc2c(o1)C(C)(C)C1=CC[C@H]3[C@@H]4CC[C@H]([C@H](C)CO)[C@@]4(C)CC[C@@H]3[C@@]1(C)C2 ? Thanks!
≥ 100%

Answer with the recorded viability at 48 h, 10 µM of C[C@H](C(=O)NC1CCCCC1)[C@H]1CC[C@H]2[C@@H]3CC=C4C(C)(C)c5nnsc5C[C@]4(C)[C@H]3CC[C@]12C only.
≥ 100%

Tell me its viability at 48 h, 10 µM given C[C@H](C(=O)N1CCOCC1)[C@H]1CC[C@H]2[C@@H]3CC=C4C(C)(C)c5nnsc5C[C@]4(C)[C@H]3CC[C@]12C as the entry.
≥ 100%

Quickly give me recorded viability at 48 h, 10 µM for CCNC(=O)[C@@H](C)[C@H]1CC[C@H]2[C@@H]3CC=C4C(C)(C)c5nnsc5C[C@]4(C)[C@H]3CC[C@]12C
≥ 100%

* * *

assay: AUC (0 to t) in ICR mouse at 1 mg/kg, iv measured upto 24 hrs by LC-MS/MS analysis; format: ADME, organism-based; settings: in vivo
property: AUC(0-t) at 24 h (ng·h/mL)
Please reply with the bare figure in ng·h/mL and do not write the unit itself.

Give me measured AUC(0-t) at 24 h, please, for this compound: CCNC(=O)[C@@H](C)[C@H]1CC[C@H]2[C@@H]3CC=C4C(C)(C)c5nnsc5C[C@]4(C)[C@H]3CC[C@]12C
509

* * *

system: BMMC; test: Anti-osteoclastogenesis activity in M-CSF/RANKL-induced C57BL/6J mouse BMMC cells assessed as inhibition of osteoclast differentiation incubated for 7 days by TRAP staining based analysis; type: functional, cell-based; conditions: 168 h
Record form. Attribute: pIC50. Fill in for each entry.
# pIC50 is unitless: minus log10 of the molar concentration; print number only

Item C[C@H](CO)[C@H]1CC[C@H]2[C@@H]3CCC4=CC(=O)CC[C@]4(C)[C@H]3CC[C@]12C : provide pIC50
5.63

Give pIC50 for the following compound: CCNC(=O)[C@@H](C)[C@H]1CC[C@H]2[C@@H]3CC=C4C(C)(C)c5nnsc5C[C@]4(C)[C@H]3CC[C@]12C
7.28

Reference for the values: ChEMBL document CHEMBL5506037
